TESTED_TARGET: RNF31 PUB domain (Homo sapiens)
Construct: MBP-TEV (N, cleaved yes); made in house; host or cells: E. coli BL21 (DE3) pLysS
Sequence (Q96EP0 1-179): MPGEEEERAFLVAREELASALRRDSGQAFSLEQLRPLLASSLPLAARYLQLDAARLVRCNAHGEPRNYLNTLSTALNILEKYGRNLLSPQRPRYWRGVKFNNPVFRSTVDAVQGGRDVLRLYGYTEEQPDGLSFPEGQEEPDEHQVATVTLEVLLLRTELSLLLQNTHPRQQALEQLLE
MEASUREMENT_DESCRIPTION: Phage Library Screening with NGS, RNF31 PUB domain
Type: binding
CONDITION_DESCRIPTION: RNF31 PUB domain clusters C41-C45; target concentration 1000, first column
VALUE_TYPE: Phage library screen NGS readout, Target Concentration 1000

Examples with answers:
# SEQUENCE_TEXT, VALUE_REPORTED
records = [
    ("DPAIYQCSLAADICSTY", 7),
    ("DPASEWCLDAAVLCTYS", 63),
    ("DPAFWACLYAAEECVVD", 6),
    ("DPAWTDCDWAALYCDES", 8),
    ("DPAYSSCSWAAIYCNWT", 7),
    ("DPAYWQCIYAAWDCDQM", 13),
]

[A] DPAWWNCLYAAYECNHA
[B] DPAEDECQDAAILCSYN
Between A and B , whose measured Phage library screen NGS readout, Target Concentration 1000 reads higher? // output: label of the selected item
B
(B: 19, A: 9)

====

TESTED_TARGET: WWP1 (Homo sapiens, UniProt Q9H0M0)
Construct: GST-TEV (N, cleaved yes); made in house; host or cells: Escherichia coli BL21 (DE3)
MEASUREMENT_DESCRIPTION: Naive Library Presenter Screening (phage, NGS), WWP1 (construct not given)
Type: binding
CONDITION_DESCRIPTION: WWP1 target concentration 1000 nM, first column
Numbered stars: 1 amine (or outer) side, 2 acyl side, 3 side chain; on linkers, the order of the positions; unused ones are H or OH. Bridge positions count the residues as written; N and C are the ends. Ends that are not written are not given here. Phenylene(1,4-NHCOCH2)2 = O=C(C[*:1])Nc1ccc(NC(=O)C[*:2])cc1
The entries below come with measured interaction data at Target Concentration 1000 values attached.
// no unit string in output, number only

For orientation, consider the following solved cases.
# SEQUENCE_TEXT, TESTED_TARGET, VALUE_REPORTED
measured = [
    ("DPARWACTEAAHVCDTL (linker 7-14 via Phenylene(1,4-NHCOCH2)2)", "WWP1 (Homo sapiens, UniProt Q9H0M0)", 183),
    ("DPAQLSCTVAAHVCHST (linker 7-14 via Phenylene(1,4-NHCOCH2)2; not fully specified (C-terminus))", "WWP1 (Homo sapiens, UniProt Q9H0M0)", 275),
    ("DPATHVCTTAA VMCHQT (DPATHVCTTAAVMCHQT; not fully specified; cysteine pairing not given here)", "WWP1 (Homo sapiens, UniProt Q9H0M0)", 275),
]

Lookup result for DPAWMACAWAANLCHSS (linker 7-14 via Phenylene(1,4-NHCOCH2)2) ; measured interaction data at Target Concentration 1000: 244

Quick note, interaction data at Target Concentration 1000 for DPAWVSCVRAANLCHVS (linker 7-14 via Phenylene(1,4-NHCOCH2)2 (inferred); not fully specified (C-terminus)) landed at 183

// DPAIIRCTSAAMMCHNT (linker 7-14 via Phenylene(1,4-NHCOCH2)2) : interaction data at Target Concentration 1000 value = 183

// recorded interaction data at Target Concentration 1000 for DPATMNCTLAANICHSH (linker 7-14 via Phenylene(1,4-NHCOCH2)2 (inferred); not fully specified (C-terminus)) : 458
